B1: HDAC6 (parent)
chain: KMKTRELHRESSNFDSIYICPSTF

- Variants of: B1
- experimentalDetails: protein stability index of a GFP-peptide fusion (GPS, HEK-293T) (PSI 1-6); higher = more stable;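 note: lentivirally expressed fusions sorted by FACS into six bins by GFP to DsRed ratio, PSI derived from sequencing read proportions per bin multiplied by bin number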
- testContext: c terminus: a fixed tail appended
outcomeMeasure: protein stability index

// worked examples, protein stability index included
# sequenceChange, protein stability index
rows = [
    ("Y18E", 3.45),
    ("K1F", 1.92),
    ("R9F", 1.39),
    ("T23G", 2.46),
    ("P21F", 2.44),
]

Record L7Q . Reported protein stability index: 2.72

Record N13Y . Reported protein stability index: 1.64

Record E10W . Reported protein stability index: 1.22

Record S11L . Reported protein stability index: 1.66

Record S22E . Reported protein stability index: 2.66
